# Assay Method Text: tissue concentrations after intraperitoneal injection into a live rat
# Assay type: in vivo
# Run Conditions: ip, 6 mg i.p., 15 min, skeletal muscle, read-out: Concentration of compound 188 in tissue samples (μM) muscle
Endpoint: concentration at 15 min (µM)
Express the result in µM but write the number alone.

# query: concentration at 15 min of entry O=C1c2ccsc2N=C2N(c3ccc(N4CCOCC4)cc3)CCC12O (stereo not shown)
48

---

I'd be grateful if you could share measured inhibition at 5 µM for these entries.
# Tested On: recombinant human non-muscle myosin 2 NM2C (Homo sapiens, UniProt Q7Z406)
# Sequence (Q7Z406 whole entry): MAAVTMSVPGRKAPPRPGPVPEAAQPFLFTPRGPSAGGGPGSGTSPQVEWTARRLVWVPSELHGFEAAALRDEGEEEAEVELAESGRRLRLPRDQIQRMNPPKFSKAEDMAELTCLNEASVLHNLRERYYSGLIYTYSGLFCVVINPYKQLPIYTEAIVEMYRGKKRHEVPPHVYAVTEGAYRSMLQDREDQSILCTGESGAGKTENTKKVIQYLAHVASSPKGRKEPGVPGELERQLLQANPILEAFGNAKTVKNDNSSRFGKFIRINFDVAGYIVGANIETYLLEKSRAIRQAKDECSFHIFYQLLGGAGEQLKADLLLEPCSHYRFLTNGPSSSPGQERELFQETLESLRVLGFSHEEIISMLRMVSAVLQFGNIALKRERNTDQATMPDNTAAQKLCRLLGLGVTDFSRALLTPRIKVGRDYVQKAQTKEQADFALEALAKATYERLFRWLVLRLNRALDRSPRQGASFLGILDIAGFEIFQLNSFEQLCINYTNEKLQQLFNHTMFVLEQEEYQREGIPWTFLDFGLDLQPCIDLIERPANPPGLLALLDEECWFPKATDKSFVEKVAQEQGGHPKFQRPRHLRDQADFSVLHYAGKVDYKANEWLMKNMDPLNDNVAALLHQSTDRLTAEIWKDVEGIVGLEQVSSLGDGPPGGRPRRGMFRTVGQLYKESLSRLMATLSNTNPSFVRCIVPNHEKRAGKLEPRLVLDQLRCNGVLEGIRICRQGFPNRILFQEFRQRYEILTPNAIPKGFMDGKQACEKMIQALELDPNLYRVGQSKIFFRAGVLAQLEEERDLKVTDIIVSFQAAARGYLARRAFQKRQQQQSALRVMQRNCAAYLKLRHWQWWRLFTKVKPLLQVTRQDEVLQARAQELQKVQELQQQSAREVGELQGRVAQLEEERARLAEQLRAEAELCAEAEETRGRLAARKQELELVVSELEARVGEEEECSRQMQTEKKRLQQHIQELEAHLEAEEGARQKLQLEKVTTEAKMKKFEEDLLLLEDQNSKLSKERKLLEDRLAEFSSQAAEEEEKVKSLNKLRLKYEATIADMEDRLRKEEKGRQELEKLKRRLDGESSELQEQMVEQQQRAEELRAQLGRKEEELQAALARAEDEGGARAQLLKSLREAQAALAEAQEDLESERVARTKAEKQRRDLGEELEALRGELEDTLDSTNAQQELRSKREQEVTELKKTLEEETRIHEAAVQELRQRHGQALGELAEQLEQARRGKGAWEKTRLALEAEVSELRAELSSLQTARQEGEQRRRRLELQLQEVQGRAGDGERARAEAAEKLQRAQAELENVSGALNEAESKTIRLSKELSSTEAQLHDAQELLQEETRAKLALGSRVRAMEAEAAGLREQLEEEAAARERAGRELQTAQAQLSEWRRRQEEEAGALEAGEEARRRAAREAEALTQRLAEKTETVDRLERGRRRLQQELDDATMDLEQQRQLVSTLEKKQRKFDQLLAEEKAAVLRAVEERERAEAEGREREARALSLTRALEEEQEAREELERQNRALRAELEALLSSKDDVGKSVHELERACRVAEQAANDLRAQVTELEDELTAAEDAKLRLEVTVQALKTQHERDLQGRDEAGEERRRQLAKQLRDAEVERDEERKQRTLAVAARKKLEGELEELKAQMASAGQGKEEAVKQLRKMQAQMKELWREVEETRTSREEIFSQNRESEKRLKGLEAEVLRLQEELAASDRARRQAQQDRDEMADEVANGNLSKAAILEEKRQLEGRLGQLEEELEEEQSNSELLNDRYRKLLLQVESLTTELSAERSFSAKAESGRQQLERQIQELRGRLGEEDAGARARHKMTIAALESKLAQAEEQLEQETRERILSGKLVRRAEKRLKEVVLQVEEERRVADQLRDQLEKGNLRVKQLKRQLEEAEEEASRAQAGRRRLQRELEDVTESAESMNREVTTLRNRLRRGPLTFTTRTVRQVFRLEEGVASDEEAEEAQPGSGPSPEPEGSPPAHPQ
# Assay Method Text: actomyosin steady state ATPase measurement, NM2C
# Type: biochemical
# Run Conditions: read-out: % inhibition at 5 μM (or 10 μM if racemate) NM2C; 5 μM (10 μM if racemate); ATPase activity
Express the result in % but write the number alone.

# query: inhibition at 5 µM of entry O=C1c2ccsc2N=C2N(c3ccc(CO)cc3)CC[C@@]12O
13

# query: inhibition at 5 µM of entry Cc1ccc(N2CC[C@@]3(O)C(=O)c4ccsc4N=C23)cc1
48

# query: inhibition at 5 µM of entry O=C1c2sccc2N=C2N(c3ccccc3)CCC12O (stereo not shown)
6

# query: inhibition at 5 µM of entry Cc1cc2c(s1)N=C1N(c3ccc(N4CCOCC4)cc3)CCC1(O)C2=O (stereo not shown)
19

# query: inhibition at 5 µM of entry Cc1cc2c(s1)N=C1N(c3ccc(OC(F)(F)F)cc3)CCC1(O)C2=O (stereo not shown)
52

# query: inhibition at 5 µM of entry CC(=O)c1ccc(N2CC[C@@]3(O)C(=O)c4ccsc4N=C23)cc1
21

# query: inhibition at 5 µM of entry N#Cc1ccc(N2CC[C@@]3(O)C(=O)c4ccsc4N=C23)cc1
22

# query: inhibition at 5 µM of entry O=C1c2ccsc2N=C2N(c3cccs3)CC[C@@]12O
2

# query: inhibition at 5 µM of entry Cc1cc2c(s1)N=C1N(c3ccc(CO)cc3)CCC1(O)C2=O (stereo not shown)
52

# query: inhibition at 5 µM of entry O=C1c2ccncc2N=C2N(c3ccc(OC(F)(F)F)cc3)CCC12O (stereo not shown)
27

# query: inhibition at 5 µM of entry O=C1c2ccsc2N=C2N(c3ccc(N4CCOCC4)cc3)CCC12O (stereo not shown)
8

# query: inhibition at 5 µM of entry O=C1c2cccnc2N=C2N(c3ccccc3)CCC12O (stereo not shown)
11

# query: inhibition at 5 µM of entry Cc1cc2c(s1)N=C1N(c3cccs3)CCC1(O)C2=O (stereo not shown)
78

# query: inhibition at 5 µM of entry N#CCc1ccc(N2CC[C@@]3(O)C(=O)c4ccsc4N=C23)cc1
16

# query: inhibition at 5 µM of entry COc1ccc(N2CCC3(O)C(=O)c4cc(C)sc4N=C23)cc1 (stereo not shown)
77

# query: inhibition at 5 µM of entry Cc1cc2c(s1)N=C1N(c3ccccc3)CCC1(O)C2=O (stereo not shown)
51

# query: inhibition at 5 µM of entry Cc1cc2c(s1)N=C1N(c3ccc(C#N)cc3)CCC1(O)C2=O (stereo not shown)
72

# query: inhibition at 5 µM of entry Cc1cc2c(s1)N=C1N(c3ccc(CC#N)cc3)CCC1(O)C2=O (stereo not shown)
69

# query: inhibition at 5 µM of entry Cc1cc2c(s1)N=C1N(c3cccs3)CC[C@@]1(O)C2=O
54

These entries and their values trace back to patent US12421243B2.
